Test system: velvetleaf (Abutilon theophrasti)
Test: Test B pre-/postemergence plant response
Format: in vivo
Conditions: Postemergence, 62 g ai/ha; scale 0 to 100, 0 no effect, 100 complete control
quantity-measured: Plant response rating, Velvetleaf

Example entries and their recorded answers appear below.
> print(dat)
                                   molecule                       assay.system  result
1  Cc1cc(-c2ccc(Cl)cc2)nn1-c1c(OC(=O)c2ccccc2)cnn(C)c1=O [Compound 48]  velvetleaf (Abutilon theophrasti)       0
2  Cc1cc(-c2ccc(Cl)cc2)nn1-c1c(OC(=O)C(C)C)cnn(C)c1=O [Compound 34]  velvetleaf (Abutilon theophrasti)       0
3  COCc1cc(-c2ccc(Br)cc2)nn1-c1c(O)cnn(C)c1=O [Compound 68]  velvetleaf (Abutilon theophrasti)       0

Bench note, velvetleaf (Abutilon theophrasti): CCc1cc(-c2ccc(Cl)cc2)nn1-c1c(OS(C)(=O)=O)cnn(C)c1=O [Compound 39] , Plant response rating, Velvetleaf reads 0

GET /values?item= Cc1nn(C)c(=O)c(-n2nc(-c3ccc(Br)cc3)cc2C)c1O [Compound 81] &system= velvetleaf (Abutilon theophrasti) returns Plant response rating, Velvetleaf: 0

Fill in: velvetleaf (Abutilon theophrasti) Plant response rating, Velvetleaf for COC(=O)Oc1cnn(C)c(=O)c1-n1nc(-c2ccc(Cl)cc2)cc1C [Compound 33] = 5

---

System: umbrella sedge (Cyperus difformis)
Assay: Test B flooded paddy test plant response
Assay type: in vivo
Conditions: Flood (flooded paddy test), 250 g ai/ha; scale 0 to 100, 0 no effect, 100 complete control
quantity-measured: Plant response rating, Sedge, Umbrella
I'd appreciate a reply containing only the number, no unit.

Past entries and their recorded results:
> print(dat)
                                   compound  quantitative.result
1  Cc1cc(-c2ccc(Cl)cc2)nn1-c1c(OC(=S)N(C)C)cnn(C)c1=O [Compound 69]                    0
2  Cc1nn(-c2ccc(Cl)cc2)cc1-c1c(O)cnn(C)c1=O [Compound 29]                    0

Measured Plant response rating, Sedge, Umbrella of Cc1cc(-c2ccc(Cl)cc2)nn1-c1c(OS(C)(=O)=O)cnn(C)c1=O [Compound 36] : 0

For record CCc1cc(-c2ccc(Cl)cc2)nn1-c1c(OC(=O)OC(C)C)cnn(C)c1=O [Compound 41] the listed Plant response rating, Sedge, Umbrella is 85

// Plant response rating, Sedge, Umbrella value for Cc1cc(-c2ccc(Cl)cc2)nn1-c1c(OC(=O)OCC(C)C)cnn(C)c1=O [Compound 57] : 80

Reported Plant response rating, Sedge, Umbrella ( Cc1cc(-c2ccc(Cl)cc2)nn1-c1c(OC(=O)c2ccccc2)cnn(C)c1=O [Compound 48] ) = 50

Entry under test: COCc1cc(-c2ccc(Br)cc2)nn1-c1c(O)cnn(C)c1=O [Compound 68] . Its Plant response rating, Sedge, Umbrella was 0

The compound CCc1cc(-c2ccc(Cl)cc2)nn1-c1c(OC(=O)C(C)(C)C)cnn(C)c1=O [Compound 40] showed Plant response rating, Sedge, Umbrella equal to 0

Summary for this compound, CCc1cc(-c2ccc(Cl)s2)nn1-c1c(O)cnn(C)c1=O [Compound 63] : Plant response rating, Sedge, Umbrella is 0

For Cc1cn(-c2ccc(Cl)cn2)nc1-c1c(O)cnn(C)c1=O [Compound 84] the compound record lists Plant response rating, Sedge, Umbrella as 0
